Tested on: Cytosolic malic enzyme, rat liver
Assay: Cytosolic malic enzyme activity in liver of steroid-fed rats (enzyme induction in rat liver by C19 steroids)
Format: in vivo, rat (male Sprague Dawley)
Conditions: 0.05 wt % steroid in diet, 6 days, rat liver cytosol
Each entry below carries its reported Malic Enzyme (% control).
Give the value, in units of % control, as a plain number.

// known answers, use as guide
compound	recorded.result
C[C@]12CC[C@H](O)CC1=C[C@@H](O)[C@@H]1[C@@H]2CC[C@]2(C)C(=O)CC[C@@H]12 [Δ5 Androstene 3β,7α-ol-17-one, Δ5-Androstene 3β,7α-diol-17-one]	423
C[C@]12CC[C@H]3[C@@H](C(=O)C=C4C[C@@H](O)CC[C@@]43C)[C@@H]1CC[C@@H]2O [Δ5-Androstene 3β,17β-diol-7-one, Δ5-Androstene-3β,17β-diol-7-one]	305
C[C@]12CC[C@H](O)CC1=CC(=O)[C@@H]1[C@@H]2CC[C@]2(C)C(=O)CC[C@@H]12 [7-keto DHEA, Δ5-Androstene-3β-ol-7,17-dione]	449

Just so you know, measured Malic Enzyme (% control) for C[C@]12CC[C@H](O)CC1=CC[C@@H]1[C@@H]2CC[C@]2(C)C(=O)CC[C@@H]12 [DHEA, Δ5-androstene 3β-hydroxy, 17-one, reference compound] came out at 337
